biological target: PKR K410E (Homo sapiens, UniProt P30613, K410E); assay: PKR mutant assay (K410E), AC50, LDH/NADH-coupled, absorbance at 340 nm; assay type: biochemical; conditions: Table 2; enzyme assay
Sequence (P30613 whole entry K410E): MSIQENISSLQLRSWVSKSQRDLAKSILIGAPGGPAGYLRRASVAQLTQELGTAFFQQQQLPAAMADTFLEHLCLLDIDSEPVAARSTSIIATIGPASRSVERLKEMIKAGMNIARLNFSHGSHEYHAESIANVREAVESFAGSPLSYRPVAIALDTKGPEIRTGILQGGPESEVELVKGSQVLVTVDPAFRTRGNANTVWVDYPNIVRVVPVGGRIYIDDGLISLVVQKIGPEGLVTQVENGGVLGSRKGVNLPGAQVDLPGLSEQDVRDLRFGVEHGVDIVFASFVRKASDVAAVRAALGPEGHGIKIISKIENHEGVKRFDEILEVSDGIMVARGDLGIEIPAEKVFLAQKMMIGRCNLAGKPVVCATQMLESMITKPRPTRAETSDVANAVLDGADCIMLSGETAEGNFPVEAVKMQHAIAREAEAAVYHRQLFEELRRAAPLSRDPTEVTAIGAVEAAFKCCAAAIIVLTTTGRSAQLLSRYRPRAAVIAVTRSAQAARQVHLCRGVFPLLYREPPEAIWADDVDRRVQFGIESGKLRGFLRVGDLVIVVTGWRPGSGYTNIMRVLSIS
recordedMetric: AC50

Field: example entries. Status: answers known.
>  <compound>
Cc1nc2c(s1)c1cnn(CCCO)c(=O)c1n2C

>  <AC50>
> 800 nM

$$$$
>  <compound>
Cn1c2nc(CNS(C)(=O)=O)sc2c2cnn(Cc3cccc4[nH]ncc34)c(=O)c21

>  <AC50>
< 300 nM

$$$$
>  <compound>
COc1cccc(Cn2ncc3c4sc([S+](C)[O-])nc4n(C)c3c2=O)c1 (centres unmarked)

>  <AC50>
< 300 nM

$$$$
>  <compound>
Cn1c2nc(S(N)(=O)=O)sc2c2cnn(Cc3cccc4[nH]ncc34)c(=O)c21

>  <AC50>
< 300 nM

$$$$
>  <compound>
Cn1c2nc(Cc3cccnc3)sc2c2cnn(Cc3cccc4[nH]ncc34)c(=O)c21

>  <AC50>
< 300 nM

$$$$

The reported AC50 of the compound COc1ccc(Cc2nc3c(s2)c2cnn(Cc4cccc5[nH]ncc45)c(=O)c2n3C)cn1 was < 300 nM

The reported value for CC(O)c1cccc(Cn2ncc3c4sc([S+](C)[O-])nc4n(C)c3c2=O)c1 (centres unmarked) in terms of AC50 is 301 to 800 nM

Record Cn1c2nc(C(=O)NO)sc2c2cnn(Cc3cccc4[nH]ncc34)c(=O)c21 , field AC50: < 300 nM

Values compiled from patent US11957680B2.
